Tested on: Hepatitis C virus NS3 helicase
Assay: HCV NS3 helicase inhibitors, retest, confirmation, biochemical, Cy5 molecular beacon fluorescence, triplicate (AID 1943)
Details: NS3 helicase DNA unwinding, at 10.9 µM
The whole screen tested about 1,600 compounds, of which about 500 (31%) were called active.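 How the source made its calls: active means inhibition above the mean of all tested compounds plus 3 SD, cutoff set per campaign (cut at about 36% in these data); inactive means the rest.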 A selection follows.
Outcomes: active, inactive

compound: CCOc1ccc(C(C(=O)NCCOC)N(CCOC)C(=O)CCC(=O)Nc2ccccn2)cc1 (stereo unspecified)
answer_label: inactive
--
compound: CC(Oc1ccccc1)C(=O)Nc1oc(-c2ccco2)c(-c2ccco2)c1C#N (stereo unspecified)
answer_label: active
--
compound: O=C1N/C(=C/c2cccn2-c2ccccc2)C(=O)N1c1cccc(Cl)c1
answer_label: inactive
--
compound: N#C/C=C(/c1ccc(F)cc1)N1CCOCC1
answer_label: inactive
--
compound: Cc1ccc(OCC(=O)c2cc(C)n(Cc3ccco3)c2C)c([N+](=O)[O-])n1
answer_label: inactive
--
compound: O=[N+]([O-])c1cc(Cl)cc(/C=N/NC(=S)Nc2cc(S(=O)(=O)N3CCOCC3)ccc2Cl)c1O
answer_label: active
